system: Cryptococcus gattii; assay: In vitro antifungal assay (Example IX), microdilution broth, MIC; assay type: cell-based; settings: minimum inhibitory concentration (≥50% inhibition), 35° C., 72 h (Cryptococcus), RPMI1640
experimentalEndpoint: MIC

Known MIC results, listed for orientation:
>>> measuredvalue("Nc1ncccc1-c1cc(Cc2ccc(Cc3ccnc(F)c3F)cc2)no1")
"0.01 to 0.1 mg/L"
>>> measuredvalue("Nc1ncccc1-c1cc(Cc2ccc(Oc3cccc(Cl)c3)nc2)no1")
"0.01 to 0.1 mg/L"
>>> measuredvalue("Nc1ncccc1-c1cc(Cc2ccc(Nc3ccc(F)c(F)c3F)nc2)no1")
"0.1 to 1 mg/L"

query: Requested field: MIC. Item: Nc1ncccc1-c1cc(Cc2ccc(N3CCC3c3ccccc3)nc2)no1 (centres unmarked)
result: > 1 mg/L

query: Which MIC value belongs to Nc1ncccc1-c1cc(Cc2cnc(OCC3CC3)c(F)c2)no1 ?
result: > 1 mg/L

Where do the numbers come from? From patent US11512079B2.
